Recorded values, source patent US20240391862A1.

- System: DIGSA
- Assay Info: Post-emergence herbicidal effect, greenhouse pot test
- Format: in vivo, Digitaria sanguinalis
- Condition Parameters: 320 g/ha, visual rating about 3 weeks after treatment
Recorded Post-emergence effect against DIGSA values for a group of compounds are listed next.
Readout: Post-emergence effect against DIGSA (%)

{"Compound": "CCOC(=O)C(OC)Oc1nn(-c2cccc(C)c2F)c(-c2ccc(F)nc2)c1Br (stereo not drawn)", "Numeric Result": 80}
{"Compound": "COC(=O)C(OC)Oc1nn(-c2ncccc2F)c(-c2cncc(F)c2)c1C1CC1 (stereo not drawn) [Example I-86]", "Numeric Result": 80}
{"Compound": "COC(=O)CCOC(=O)C(OC)Oc1nn(-c2ccccc2F)c(-c2ccc(F)nc2)c1C1CC1 (single isomer, unassigned) [Example I-75]", "Numeric Result": 80}
{"Compound": "COC(=O)C(OC)Oc1nn(-c2cc(F)ccc2F)c(-c2cncc(F)c2)c1C1CC1 (stereo not drawn)", "Numeric Result": 80}
{"Compound": "CCOC(Oc1nn(-c2ccccc2F)c(-c2ccc(F)nc2)c1Cl)C(=O)OCCC(=O)OC (stereo not drawn)", "Numeric Result": 90}
{"Compound": "COC(=O)CCOC(=O)C(OC)Oc1nn(-c2cc(F)ccc2F)c(-c2cncc(F)c2)c1C1CC1 (single isomer, unassigned) [Example I-79]", "Numeric Result": 80}
{"Compound": "COC(=O)C(OC)Oc1nn(-c2ncccc2F)c(-c2ccc(F)nc2)c1C1CC1 (stereo not drawn) [Example I-107]", "Numeric Result": 80}
{"Compound": "COC(=O)CCOC(=O)C(OC)Oc1nn(-c2ccccc2F)c(-c2ccc(F)nc2)c1C(F)(F)F (stereo not drawn)", "Numeric Result": 90}
{"Compound": "COC(=O)CCOC(=O)C(OC)Oc1nn(-c2cc(F)ccc2F)c(-c2cncc(F)c2)c1C1CC1 (single isomer, unassigned) [Example I-78]", "Numeric Result": 80}
{"Compound": "COC(=O)C(C)COC(=O)C(OC)Oc1nn(-c2ccccc2F)c(-c2ccc(F)nc2)c1Br (racemic)", "Numeric Result": 90}
{"Compound": "COC(=O)CCOC(=O)C(OC)Oc1nn(-c2ccccc2F)c(-c2ccc(F)nc2)c1Br (single isomer, unassigned) [Example I-13]", "Numeric Result": 90}
{"Compound": "COC(=O)CCOC(=O)C(OC)Oc1nn(-c2ccccc2F)c(-c2ccc(F)nc2)c1Br (single isomer, unassigned) [Example I-20]", "Numeric Result": 90}
{"Compound": "COC(Oc1nn(-c2ncccc2F)c(-c2ccc(F)nc2)c1C1CC1)C(=O)O (stereo not drawn)", "Numeric Result": 80}
{"Compound": "COC(Oc1nn(-c2ncccc2F)c(-c2cncc(F)c2)c1C1CC1)C(=O)O (stereo not drawn) [Example I-84]", "Numeric Result": 90}
{"Compound": "COC(=O)CCOC(=O)C(OC)Oc1nn(-c2ccccc2F)c(-c2ccc(F)nc2)c1C1CC1 (single isomer, unassigned) [Example I-74]", "Numeric Result": 90}

====

- System: VERPE
- Assay Info: Post-emergence herbicidal effect, greenhouse pot test
- Assay type: in vivo, Veronica persica
- Condition Parameters: 20 g/ha
Readout: Post-emergence effect against VERPE in % (%)

{"Molecule": "COC(=O)C(OC)Oc1nn(-c2cccc(Cl)c2F)c(-c2cncc(F)c2)c1Br (centres unmarked)", "Readout": "Post-emergence effect against VERPE in %", "Unit": "%", "Numeric Result": 80}
{"Molecule": "COC(=O)CCOC(=O)C(OC)Oc1nn(-c2cc(F)ccc2F)c(-c2cncc(F)c2)c1C1CC1 (single isomer, unassigned) [Example I-78]", "Readout": "Post-emergence effect against VERPE in %", "Unit": "%", "Numeric Result": 80}
{"Molecule": "COC(=O)C(OC)Oc1nn(-c2cccc(C)c2F)c(-c2ccc(F)nc2)c1Br (centres unmarked)", "Readout": "Post-emergence effect against VERPE in %", "Unit": "%", "Numeric Result": 80}
{"Molecule": "CCOC(Oc1nn(-c2ccccc2F)c(-c2ccc(F)nc2)c1Cl)C(=O)OCC(C)C(=O)OC (racemic)", "Readout": "Post-emergence effect against VERPE in %", "Unit": "%", "Numeric Result": 80}
{"Molecule": "COC(=O)CCOC(=O)C(OC)Oc1nn(-c2cc(F)ccc2F)c(-c2cncc(F)c2)c1C1CC1 (centres unmarked) [Example I-83]", "Readout": "Post-emergence effect against VERPE in %", "Unit": "%", "Numeric Result": 90}
{"Molecule": "COC(Oc1nn(-c2cc(F)ccc2F)c(-c2cncc(F)c2)c1C1CC1)C(=O)O (centres unmarked)", "Readout": "Post-emergence effect against VERPE in %", "Unit": "%", "Numeric Result": 80}
{"Molecule": "COC(=O)C(OC)Oc1nn(-c2cc(F)ccc2F)c(-c2cncc(F)c2)c1C1CC1 (centres unmarked)", "Readout": "Post-emergence effect against VERPE in %", "Unit": "%", "Numeric Result": 80}
{"Molecule": "COC(=O)CCOC(=O)C(OC)Oc1nn(-c2cc(F)ccc2F)c(-c2cncc(F)c2)c1C1CC1 (single isomer, unassigned) [Example I-79]", "Readout": "Post-emergence effect against VERPE in %", "Unit": "%", "Numeric Result": 90}

====

Measured Post-emergence effect against MATIN in %, listed per entry for reference.
- Tested on: MATIN
- Assay Info: Post-emergence herbicidal effect, greenhouse pot test
- Type: in vivo, Tripleurospermum inodorum
- Condition Parameters: 320 g/ha

{"Molecule": "CCOC(=O)C(OC)Oc1nn(-c2ccccc2F)c(-c2ccc(F)nc2)c1Br (centres unmarked)", "Post-emergence effect against MATIN in %, %": 90}
{"Molecule": "COC(=O)C(OC)Oc1nn(-c2cccc(Cl)c2F)c(-c2cncc(F)c2)c1Br (centres unmarked)", "Post-emergence effect against MATIN in %, %": 80}
{"Molecule": "COC(Oc1nn(-c2cc(F)ccc2F)c(-c2cncc(F)c2)c1C1CC1)C(=O)O (centres unmarked)", "Post-emergence effect against MATIN in %, %": 80}
{"Molecule": "CCOC(Oc1nn(-c2ccccc2F)c(-c2ccc(F)nc2)c1Cl)C(=O)OCC(C)C(=O)OC (racemic)", "Post-emergence effect against MATIN in %, %": 90}
{"Molecule": "COC(=O)CCOC(=O)C(OC)Oc1nn(-c2ccccc2F)c(-c2ccc(F)nc2)c1C1CC1 (centres unmarked) [Example I-61]", "Post-emergence effect against MATIN in %, %": 80}
{"Molecule": "CCOC(Oc1nn(-c2ccccc2F)c(-c2ccc(F)nc2)c1Cl)C(=O)OCCC(=O)OC (centres unmarked)", "Post-emergence effect against MATIN in %, %": 80}
{"Molecule": "CCOC(=O)C(OC)Oc1nn(-c2cccc(C)c2F)c(-c2ccc(F)nc2)c1Br (centres unmarked)", "Post-emergence effect against MATIN in %, %": 90}
{"Molecule": "COC(=O)CCOC(=O)C(OC)Oc1nn(-c2cc(F)ccc2F)c(-c2cncc(F)c2)c1C1CC1 (centres unmarked) [Example I-83]", "Post-emergence effect against MATIN in %, %": 90}

====

- Test system: VIOTR
- Assay Info: Post-emergence herbicidal effect, greenhouse pot test
- Assay type: in vivo, Viola tricolor
- Condition Parameters: Viola tricolor, 504 h, 80 g/ha, read-out: Post-emergence effect against VIOTR in %

{"Molecule": "CCOC(=O)C(OC)Oc1nn(-c2ccccc2F)c(-c2ccc(F)nc2)c1Br (centres unmarked) [Example I-23]", "Unit": "%", "pest or weed control at 80 g/ha": 80}
{"Molecule": "COC(=O)C(OC)Oc1nn(-c2ncccc2F)c(-c2ccc(F)nc2)c1C(F)(F)F (centres unmarked) [Example I-41]", "Unit": "%", "pest or weed control at 80 g/ha": 80}
{"Molecule": "CCOC(=O)C(OC)Oc1nn(-c2ncccc2F)c(-c2ccc(F)nc2)c1C(F)(F)F (centres unmarked) [Example I-55]", "Unit": "%", "pest or weed control at 80 g/ha": 80}
{"Molecule": "CCOC(=O)C(OCC)Oc1nn(-c2ccccc2F)c(-c2ccc(F)nc2)c1Cl (centres unmarked) [Example I-50]", "Unit": "%", "pest or weed control at 80 g/ha": 80}
{"Molecule": "COC(=O)C(OC)Oc1nn(-c2cc(F)ccc2F)c(-c2cncc(F)c2)c1I (centres unmarked) [Example I-28]", "Unit": "%", "pest or weed control at 80 g/ha": 90}
{"Molecule": "CCOC(=O)C(OC)Oc1nn(-c2ncccc2F)c(-c2cncc(F)c2)c1C1CC1 (centres unmarked) [Example I-113]", "Unit": "%", "pest or weed control at 80 g/ha": 90}
{"Molecule": "CCOC(=O)C(OC)Oc1nn(-c2ncccc2F)c(-c2ccc(F)nc2)c1C1CC1 (centres unmarked) [Example I-58]", "Unit": "%", "pest or weed control at 80 g/ha": 80}
{"Molecule": "CCOC(=O)C(OCC)Oc1nn(-c2ccccc2F)c(-c2ccc(F)nc2)c1Br (racemic) [Example I-01]", "Unit": "%", "pest or weed control at 80 g/ha": 80}
{"Molecule": "COC(=O)C(OC)Oc1nn(-c2ccccc2F)c(-c2ccc(F)nc2)c1C1CC1 (centres unmarked) [Example I-71]", "Unit": "%", "pest or weed control at 80 g/ha": 90}
{"Molecule": "COC(=O)C(OC)Oc1nn(-c2cc(F)ccc2F)c(-c2cncc(F)c2)c1Br (centres unmarked) [Example I-29]", "Unit": "%", "pest or weed control at 80 g/ha": 90}
{"Molecule": "COC(Oc1nn(-c2ncccc2F)c(-c2cncc(F)c2)c1C1CC1)C(=O)O (centres unmarked) [Example I-68]", "Unit": "%", "pest or weed control at 80 g/ha": 90}
{"Molecule": "CCOC(=O)C(OC)Oc1nn(-c2ncccc2F)c(-c2ccc(F)nc2)c1Br (centres unmarked) [Example I-14]", "Unit": "%", "pest or weed control at 80 g/ha": 90}
{"Molecule": "COC(=O)C(OC)Oc1nn(-c2ncccc2F)c(-c2ccc(F)nc2)c1I (centres unmarked) [Example I-39]", "Unit": "%", "pest or weed control at 80 g/ha": 80}
{"Molecule": "COC(Oc1nn(-c2cc(F)ccc2F)c(-c2cncc(F)c2)c1C1CC1)C(=O)O (centres unmarked) [Example I-109]", "Unit": "%", "pest or weed control at 80 g/ha": 90}
{"Molecule": "COC(=O)C(OC)Oc1nn(-c2ncccc2F)c(-c2cncc(F)c2)c1C1CC1 (centres unmarked) [Example I-73]", "Unit": "%", "pest or weed control at 80 g/ha": 90}
{"Molecule": "COC(=O)C(OC)Oc1nn(-c2ncccc2F)c(-c2ccc(F)nc2)c1Cl (centres unmarked) [Example I-38]", "Unit": "%", "pest or weed control at 80 g/ha": 80}
{"Molecule": "COC(=O)C(OC)Oc1nn(-c2ncccc2F)c(-c2cncc(F)c2)c1I (centres unmarked) [Example I-72]", "Unit": "%", "pest or weed control at 80 g/ha": 90}
